Measured Percent Effect by item
- System: Plasmodium falciparum
- protocol_notes: Calibr Malaria Delayed Death Assay SOP
- Assay type: functional, organism-based
- Design: scale not given: in the data most compounds retested in dose-response had high values
- experimental_parameters: concentration 4.99e-06 (unit not given; other assays of the set use mol/L)
Screen size: about 38,000 compounds; about 1,200 (3.2%) showed an effect of 50% or more. The median lay at about -58%. Shown is part of a subset that was picked to be rich in strong results.
Could you give me the number in %? Just the number is fine.

CCN1CCC2(CC1)CC(NCc1ccncc1)c1ccccc1O2.O=C(O)C(F)(F)F.O=C(O)C(F)(F)F.O=C(O)C(F)(F)F (stereo not given)    77.69

// Percent Effect lookup, key: O=C(Cc1ccc2c(c1)CCC2)NC1CCN(Cc2ccccc2)CC1
27.79

// Percent Effect lookup, key: O=C(Nc1ccccn1)C1CCN(Cc2cc3c(cc2O)OCO3)CC1
-119.6

// Percent Effect lookup, key: CN1CCN(C2CCN(CCOc3ccccc3F)CC2)C1=O
-15.81

###

- Tested on: Plasmodium falciparum
- protocol_notes: Calibr Malaria Delayed Death Assay SOP
- Type: functional, organism-based
- Design: scale not given: in the data most compounds retested in dose-response had high values
- experimental_parameters: concentration 4.99e-06 (unit not given; other assays of the set use mol/L)
In all, about 38,000 compounds went through this assay and about 1,200 (3.2%) showed an effect of 50% or more. The median lay at about -58%. This is one part of a sample in which strong results are shown more often than they occur.
Measured Percent Effect by item

Consider the worked cases shown below.
O=S(=O)(c1ccccc1Cl)N1CCC2(CC1)OCCS2    -115.5%
COc1ccc(NS(=O)(=O)CC2=NC(=O)n3cccc3C2=O)cc1Cl    -78.67%
Cc1cccc(C2(NCCCS(C)(=O)=O)CCCC2)c1    88.41%
CC(C)CCN1C2(CCN(C(=O)C3(C)CC3)C2)c2ccccc2S1(=O)=O (configuration not stated)    -11.02%
Cc1noc2ncc(S(=O)(=O)N3CCCC(C)(C)CC3)cc12    -55%

// Percent Effect lookup, key: Cc1ccc(Cl)c(C)c1NC(=O)N1CCCN(Cc2ccccn2)CC1
-12.1%

// Percent Effect lookup, key: CCN1CCC2(CC1)CC(CC(=O)N(C)C)c1ccc(F)cc12 (configuration not stated)
-67.07%

// Percent Effect lookup, key: COc1ccc(N2CCC(N3CCOC(C(F)(F)F)C3)CC2)cc1 (configuration not stated)
-105.9%

// Percent Effect lookup, key: CCS(=O)(=O)c1ccc(N2CCC(NC(C)=O)CC2)cc1
-87.36%

###

- Test system: Plasmodium falciparum
- protocol_notes: Calibr Malaria Delayed Death Assay SOP
- Assay type: functional, organism-based
- Set-up: scale not given: in the data most compounds retested in dose-response had high values
- experimental_parameters: concentration 4.99e-06 (unit not given; other assays of the set use mol/L)
In all, about 38,000 compounds went through this assay and about 1,200 (3.2%) showed an effect of 50% or more. The median lay at about -58%. The full list was thinned out, with strong results kept by preference.
metric: Percent Effect (%)
Could you give me the number in %? Just the number is fine.

// Percent Effect lookup, key: O=C(O)C(F)(F)F.O=S(=O)(C1CC1)N1CCC2(CCCN(c3ncccn3)C2)C1 (stereo unspecified)
-10.57

// Percent Effect lookup, key: CC(C(N)=O)N(C)Cc1ccccc1C(F)(F)F (stereo unspecified)
-7.943

// Percent Effect lookup, key: COC(=O)CNC(=O)C(C)Oc1ccccc1C(F)(F)F (stereo unspecified)
-63.42

// Percent Effect lookup, key: Cc1n[nH]c2ncc(CNC3CCN(Cc4ccccn4)CC3)cc12.Cl
-31.75

// Percent Effect lookup, key: CN(Cc1ccccc1C(F)(F)F)C(C(N)=O)c1ccccc1 (stereo unspecified)
-32.88

// Percent Effect lookup, key: Cc1nn(C)c(N(C)C)c1CNCC(O)c1ccccc1 (stereo unspecified)
-52.78

###

- System: Plasmodium falciparum
- protocol_notes: Calibr Malaria Delayed Death Assay SOP
- Format: functional, organism-based
- Set-up: scale not given: in the data most compounds retested in dose-response had high values
- experimental_parameters: concentration 4.99e-06 (unit not given; other assays of the set use mol/L)
The whole screen tested about 38,000 compounds, of which about 1,200 (3.2%) showed an effect of 50% or more. The median lay at about -58%. The list comes from a sample in which strong results are over-represented; it also holds close analogues and randomly drawn compounds.
Okay, here is how we bin by Percent Effect: bottom end (below -90%), midrange (-90% to below -30%), top end (-30% or more)

CNc1cncc(C2CCCN2Cc2cccc(C)n2)n1 (stereo not drawn)    midrange

For this compound, which bin applies? Cn1cccc1C(=O)N1CCN(Cc2cccnc2)c2ncccc2C1.O=C(O)C(F)(F)F.O=C(O)C(F)(F)F
midrange

For this compound, which bin applies? COCC[C@]1(O)CCN(Cc2nc(C(C)C)cs2)C[C@H]1C
bottom end

For this compound, which bin applies? CC(C)[C@@H]1CN(C(=O)C2(c3ccccc3)CCN(C)CC2)C[C@H]1N(C)C
top end

###

Measured Percent Effect by item
- Tested on: Plasmodium falciparum
- protocol_notes: Calibr Malaria Delayed Death Assay SOP
- Format: functional, organism-based
- Set-up: scale not given: in the data most compounds retested in dose-response had high values
- experimental_parameters: concentration 4.99e-06 (unit not given; other assays of the set use mol/L)
Among all 38,000 compounds or so, about 1,200 (3.2%) showed an effect of 50% or more. The median lay at about -58%. Shown is part of a subset that was picked to be rich in strong results.
Could you give me the number in %? Just the number is fine.

Cn1cc(I)c(C(=O)NC2CCCCC2)n1    -69.52
CCn1nc2c(cc1=O)CN(CCOc1ccccc1C#N)CC2    -106.3
Cc1c(C(=O)NCCCC(N)=O)sc2ccc(F)cc12    -72.75

// Percent Effect lookup, key: Cc1cc(CNC(=O)NCC(O)c2cccc(C(F)(F)F)c2)no1 (stereo not given)
-35.43

// Percent Effect lookup, key: OCCCN1CCc2[nH]nc(C(c3ccccc3)c3ccccc3)c2C1
71.73

// Percent Effect lookup, key: CN1[C@H](Cn2cncn2)C[C@@H]2CN(Cc3ccsc3)CC[C@@H]21.O=C(O)C(F)(F)F.O=C(O)C(F)(F)F
35.13

// Percent Effect lookup, key: CN(C)[C@@H]1CCN(c2ncc(F)cn2)[C@H]1Cc1ccncc1.O=C(O)C(F)(F)F.O=C(O)C(F)(F)F
27.12

// Percent Effect lookup, key: CCc1cnc(CN(C)C2CCN(CCCS(=O)(=O)NC)C2)o1 (stereo not given)
-85.83

// Percent Effect lookup, key: O=C(CC1CCCC1)NCCNCc1cccc2c1OCCO2
71.86

// Percent Effect lookup, key: CO[C@H]1CCN(Cc2cnn(C)c2)[C@@H]2CN(Cc3ccncc3)C[C@H]12.O=C(O)C(F)(F)F.O=C(O)C(F)(F)F.O=C(O)C(F)(F)F
-72.72

// Percent Effect lookup, key: [O-][S+](CCN1CCc2[nH]nc(C(F)(F)F)c2C1)c1ccccc1 (stereo not given)
-19.45

// Percent Effect lookup, key: CS(=O)(=O)N1CC[C@H](c2nc3ccc(C(F)(F)F)cc3[nH]2)C1
-89.81

###

- Test system: Plasmodium falciparum
- protocol_notes: Calibr Malaria Delayed Death Assay SOP
- Type: functional, organism-based
- Design: scale not given: in the data most compounds retested in dose-response had high values
- experimental_parameters: concentration 4.99e-06 (unit not given; other assays of the set use mol/L)
Hit rate of the full screen: of about 38,000 compounds, about 1,200 (3.2%) showed an effect of 50% or more. The median lay at about -58%. This is one part of a sample in which strong results are shown more often than they occur.
Okay, here is how we bin by Percent Effect: group 1 (below -50%), group 2 (-50% to below 10%), group 3 (10% or more)

As a guide, the following entries are already answered.
Cc1ccc(C(=O)N(C)Cc2csc(C)n2)c(=O)[nH]1    group 1
Cc1cccc(CN2CCOCC3(CCN(C4CCOCC4)C3)C2)n1.O=C(O)C(F)(F)F.O=C(O)C(F)(F)F.O=C(O)C(F)(F)F (centres undefined)    group 3
CNc1c(NCc2ccco2)c(=O)c1=O    group 1
N[C@@H](C(=O)N1CCN(c2ccccc2Cl)C(=O)C1)c1ccccc1    group 2

For this compound, which bin applies? Cn1cc(CC(=O)N2CCC(Nc3cccnn3)CC2)c2ccccc21
group 2

For this compound, which bin applies? Cl.Nc1cccnc1N1CCCCCC1
group 1

For this compound, which bin applies? CCN1CCCC(C)(C(=O)NCc2nccn2Cc2ccccc2)C1 (centres undefined)
group 3

For this compound, which bin applies? O=C(O)C(F)(F)F.O=C(c1ccoc1)N1CCOC2(COCCN(CC3CC3)C2)C1 (centres undefined)
group 2

For this compound, which bin applies? CN(CCc1ccccn1)Cc1nccn1Cc1ccccc1
group 3

For this compound, which bin applies? Cc1ncoc1C(=O)N1CC[C@@H](O)[C@@H](O)[C@H](N2CCC(F)(F)CC2)C1
group 1
